Assay: protease stability score; higher = more stable; yeast display proteolysis, trypsin and chymotrypsin;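 note: relative to predicted unfolded state with 0 unfolded-like and 1 meaning tenfold more protease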
# label = Condition met if protease stability score >= 0.7 else Condition not met

Answered examples (4):
record_sequence=SKISEFVKMLLEIEVHAHETGDWRHYQEMMDPHVKFELNIGNFHTLDHGRDRLIDWIEHHIKRADHLHVHIREVHVIGDKVSVRGELKTNVNGVDLEYEILQIIIVVDGRFKSIQHSYL label="Condition not met"
record_sequence=SEEEDFMRQVYHWFLELWLTGDEDIFKKLADPDTLLDWNGVQSVGMEEFHRLLHEMEERLGVKHKEYKRFRIQGNKVHLDLVHEFNGRRIKTEIVVVVVNGRFKEIRIRHH label="Condition met"
record_sequence=SEDQEAMDRAIKIFEEIVDTGNERLSRENMDPRTRIVFEGVHLHGREEAVRHHRELWKRVDVMEMRTEDYRFFDGRVHQTTRLHLNYNGREETYETRFLVEKVNGKWFIKSIIIV label="Condition not met"
record_sequence=SEDERELKHWQTIALRLWKTGDFKSELENLDPHARLHINGVHIIGRERMKEFLERIKNLRVEHLHDEHVHIQGDKITLHGHMDVIINGQRTEVDYEFILLKVNGRWLDHSIEMR label="Condition met"

Consider the record given below.
Does the reported protease stability score for `SEVEEEMTRIADILLRVTKTGDWEEMRDLIDPDARMIIDIDGREHINVGREDLARSLKRLRDHLGVKVWDYHHISVIGDKIHIETQQRFNGQDVTTRNEWTVINGKLKEMRLIIH` fall at or above the 0.7 mark? Condition met

* * *

Test: protease stability score; higher = more stable; yeast display proteolysis, trypsin and chymotrypsin;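 note: relative to predicted unfolded state with 0 unfolded-like and 1 meaning tenfold more protease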
For each record, write down the corresponding protease stability score.
Answers are plain numbers.

Known protease stability score results, listed for orientation:
record_sequence=HEYEEEVTKAIEVLLHLLMTGDFDQMLHLADPNYRVDINGQEYIGREWFEVIRDKFKNVKIKDMHIDHVIFIGDKVIIHSREHRQQGDKERTFTVVLYSRKINGQWVHTSVKFS measured_parameter="protease stability score" reading=1.59
record_sequence=SEEDEHLRHLAELFVKLLLTGDFNTLHHLLDPHVKFNIGEFESHGMEHLWRAWEEWRFHHISLEDVRVQGDKAHLHFRSTVHYNGRTKRVDTHVEIKVVNGRFKEVHIRIH measured_parameter="protease stability score" reading=1.59
record_sequence=SEEERIMEEVSNLILDILYTGDWRRFLKLADPRTRSEINGVELIGMENHFKMWEHWRIKHIDMHSHESQGDKAIAHTRHRGEINGRERDVDTNLFVLVVNGRLKQIRLEFV measured_parameter="protease stability score" reading=1.25
record_sequence=TEEHKFVKDFFIHMIRAWITGDEKELHRLFDPHTKVRIGDYVSHGMERTLEIWHKLWKELGFKHLEVREVRAQGDKSHTDVVYHVDGREKKVHIELEVFNGKATHLELDEK measured_parameter="protease stability score" reading=0.519
record_sequence=SELEEEAKELIEEWLHSFSTGDEKKLYELADPDDRLLFNGVEFVGREEMLKNFRDLYRKWGVTRVEADVKRIHVFNGVAHSDTVSHYNGVRVKTHLVIEKINGRWRVSSLHIH measured_parameter="protease stability score" reading=1.42
record_sequence=SEDEELLKKFFERLLHALRTGDEDHLRTLIDPHARLIQGDKHYIGREQLEHSLHIILSHIRFEHHDSRREEIQGDKAIVHSHLIVRQGDKTYRLDVTFHLEKVNGRWVIREVDLN measured_parameter="protease stability score" reading=1.33
record_sequence=DSEEEDARRALQEFLEHLATGNWEVLTKMMDPNTRLDVDGRDIHGWDEVKHHLKEMRVTIDHLHIERYIVQGEKVDIRGRVHILKEFDGKVLRHDRHVRIIFEKVDGRWIIHKIEHR measured_parameter="protease stability score" reading=1.99
record_sequence=DEERQTLEEWARELLQIHKTGDEERHKEYADPDDLLRIGDKDFHGMEHVLHALVQHWEKMGVKHLEIKRLRVINGVMHVEGVLHVGDKTHDVKLHLFIFNGRIERVEIRIE measured_parameter="protease stability score" reading=1.33
record_sequence=TEDDRDFKLALELVEHHIKTGDEDDMSRLADPHVRIDDENETHHGREEFEEFVHRMIKRFKNIKWELKRTESQGDKIRIDFRIHVGDKTLRLIIIAEKVDGRWLIHTVIIN measured_parameter="protease stability score" reading=1.35
record_sequence=DKEEDEFRKAFEIVRHTWKTGDEHLLEKLMDPDARMDVNGVHNHGREEATKTVFEIVEKIKNARLEFKRIEVYDGRIFFHMDWDVNGVRVFVLIISIKVDGRWRHKSYSEDRV measured_parameter="protease stability score" reading=0.856

Look at each sequence and report its protease stability score.
1. DEEHEWAQLVIQLFFEALHTGDEKTLHELMDPEVKVNVDGRELHGREEVMEWFEELIRQYKNAKIHLHIHRVEYVGNKVIIRGELHFRYGDKEERIDRILHVLKVDGRWLIREIEHR
2. DEEKTIHNHLMELVVRAFLTGDEELWSNLADPDTKEIIDGKTNVGREEVAKFWKDLVHKFKNARWHITIKRVDVIDGQVRQNSHLEIRYGDKHFHLETEDHLYVINGRLKQFEFRVN
3. SELNEKLKHLIELHWRVLETGDEHMMTRLLDPHARLEYGDKELHGREEVTHWHYEILEKVKNLQIHLSDYRIVNGQIHLHVVENVNGVTTRRFINIEKIDGRWHDREIRIE
4. NERDERVEELMKLWFESLRTGDWRQMRNLLDPHARVIMLVGDKHVELHGWEAMLLLIHQFRNIRLRIDSTRLQGDKLEIEGTSEFDGKHRNVVIEIQVINGRIHTIKYIED
5. NEEEHFMKEALEIWLHFFRTGDERDIQREFDPNARFEFENHTSHGRESVRELLTRLFHDLGINHVQFESIRVQGDKVEIHGHFFVDGRRYDFEMNSVKINGRWLNHTIRLR
6. DEDTHKLDKHVKEVLTAWETGDEEMLLRLIDPDARITIGDKEVIGMEEALKHWKEIRIKHLELTDFKLVDGQLDSKVQVHSEVNGRRFETTIRIVLHKINGKWRIRSMTFI
7. SEDDETVIRMTHIILHAIFTGDEHITERLMDPHAKVTVGEFDTHGWEELDRFWKEMRMKRLKIRRIDFRWVNGRILSEIVVELDGIVNGRERKITMLIVIIIDKIDGRWVVTEFHFRIE

[1.51, 1.18, 0.757, 2.1, 1.12, 1.34, 1.43]

// batch mode: one protease stability score value per listed entry
1. TEEHHFAERVVREWLKLYYTGDEERNETLADPNVKLDVNGRHYHGRESVSEFLREVYEHWRIREFHIHEFDVFNGVSHVDGELILEINGQKHRYRVRIIIVVINGRLKHIELNQV
2. DERREQTRHWINMFTHAMRTGDEHTFKELLDPHVRVKDEHEEDHGRDKAVELFSRVDVFHDIKLRDIDVQGNYVTIEVELLGEIDGKRTTHDLHIITYKINGRWILKSVSIR

1: 1.56; 2: 1.06

List protease stability score for every entry below, keeping the order given.
1. SEEEEEIEKMVRHMIHNLLTGNEDVIDKFVDPHVQLHINGRDIHGRENIRREIRRTLEELGVDHWIVHHIEIRRVGDKAIAINHGTIVINGRNVDTEFIFWLHKVNGRWMVHSYEIRIR
2. NESEELYRIALELKRETDKTGDEEIFRKLMDPSTRLEVDGRIWHGREAVEVFIRRFDHLHRFEVKDTRVFDGQVQIEGELDSTVGDKRLNVHIEVFAIKFDGRWRLKSVRVE
3. DEDDRLAEDLLRLIYHALQTGDEKHLEDFMDPHTQIIIEWNGVRDDTHGREEFSRKFHEQVRELRVHFHQNSIHVINGRAHNDGRLELNINGKIIKLKVILEIQVINGRIKEIRIIVR

1.4
1.58
1.95

Origin of measurements: the NTF2 design screens of Basanta et al. (2020)
